The values you see were collected from ChEMBL document CHEMBL1140128.

Could you please report measured fold change (FC) for the items listed next?
Target: Melanocortin receptor 5 (Mus musculus) (UniProt P41149)
Sequence (P41149 whole entry): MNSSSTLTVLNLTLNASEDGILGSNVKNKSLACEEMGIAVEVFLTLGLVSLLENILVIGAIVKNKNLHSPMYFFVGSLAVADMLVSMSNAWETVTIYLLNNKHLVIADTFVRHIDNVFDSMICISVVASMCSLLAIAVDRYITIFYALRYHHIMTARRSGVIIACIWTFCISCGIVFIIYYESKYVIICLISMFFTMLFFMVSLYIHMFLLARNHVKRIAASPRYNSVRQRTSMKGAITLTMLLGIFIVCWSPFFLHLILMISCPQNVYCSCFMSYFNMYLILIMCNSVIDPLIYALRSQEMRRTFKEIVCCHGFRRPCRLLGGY
Assay: Agonist activity at mouse MC5R expressed in HEK293 cells by CRE/beta-galactosidase reporter gene assay relative to Ac-His-DPhe7-Arg-Trp-NH2 peptide
Format: functional, cell-based
# output: bare number, no unit

// fetch fold change (FC) given entry `CC(=O)N[C@@H](Cc1cnc[nH]1)C(=O)N[C@H](Cc1ccc(C)cc1)C(=O)N[C@@H](CCCNC(=N)N)C(=O)N[C@@H](Cc1c[nH]c2ccccc12)C(N)=O`
2

Supply recorded fold change (FC) for `CC(=O)N[C@@H](Cc1cnc[nH]1)C(=O)N[C@H](Cc1ccccc1)C(=O)N[C@@H](CCCNC(=N)N)C(=O)N[C@@H](Cc1c[nH]c2ccccc12)C(N)=O` here.
1

Look up fold change (FC) of `CC(=O)N[C@@H](Cc1cnc[nH]1)C(=O)N[C@H](Cc1ccc(O)cc1)C(=O)N[C@@H](CCCNC(=N)N)C(=O)N[C@@H](Cc1c[nH]c2ccccc12)C(N)=O` and report it.
223

Entry `CC(=O)N[C@@H](Cc1cnc[nH]1)C(=O)N[C@H](Cc1ccc(N)cc1)C(=O)N[C@@H](CCCNC(=N)N)C(=O)N[C@@H](Cc1c[nH]c2ccccc12)C(N)=O` needs its fold change (FC) filled in; supply it.
69

Please report fold change (FC) for the following molecule: `CC(=O)N[C@@H](Cc1cnc[nH]1)C(=O)N[C@H](Cc1ccc(Cl)cc1)C(=O)N[C@@H](CCCNC(=N)N)C(=O)N[C@@H](Cc1c[nH]c2ccccc12)C(N)=O`
-2

Report fold change (FC), nothing else, for this molecule: `CC(=O)N[C@@H](Cc1cnc[nH]1)C(=O)N[C@H](Cc1ccc(C#N)cc1)C(=O)N[C@@H](CCCNC(=N)N)C(=O)N[C@@H](Cc1c[nH]c2ccccc12)C(N)=O`
1
